- Protocol description: total protein half-life in vivo (active degradation + dilution); higher = more stable protein
- Condition notes: E. coli NCM3722 delta-hslV; growth: N-lim chemostat; doubling time 6 h
Readout label: total protein half-life in vivo (h)
Give just the numeric value; h need not be written.

Query: Answer with the recorded total protein half-life in vivo of `MINYGVVGVGYFGAELARFMNMHDNAKITCVYDPENGENIARELQCINMSSLDALVSSKLVDCVIVATPNYLHKEPVIKAAKNKKHVFCEKPIALSYEDCVDMVKACKEAGVTFMAGHIMNFFNGVQYARKLIKEGVIGEILSCHTKRNGWENKQERLSWKKMKEQSGGHLYHHIHELDCVQHLLGEIPETVTMIGGNLAHSGPGFGNEDDMLFMTLEFPSGKLATLEWGSAFNWPEHYVIINGTKGSIKIDMQETAGSLRIGGQTKHFLVHETQEEDDDRRKGNMTSEMDGAIAYGHPGKKTPLWLASLIRKETLFLHNILCGAKPEEDYIDLLNGEAAMSAIATADAATLSRSQDRKVKISEIIKHTSVM` only.
Response: 4.31

----------
- Protocol description: total protein half-life in vivo (active degradation + dilution); higher = more stable protein
- Condition notes: wild type E. coli NCM3722; growth: C-lim chemostat; doubling time 6 h
total protein half-life in vivo overview
Give just the numeric value; h need not be written.

Residue codes	Measure unit	total protein half-life in vivo
MSSNTFTLGTKSVNRLGYGAMQLAGPGVFGPPRDRHVAITVLREALALGVNHIDTSDFYGPHVTNQIIREALYPYSDDLTIVTKIGARRGEDASWLPAFSPAELQKAVHDNLRNLGLDVLDVVNLRVMMGDGHGPAEGSIEASLTVLAEMQQQGLVKHIGLSNVTPTQVAEARKIAEIVCVQNEYNIAHRADDAMIDALAHDGIAYVPFFPLGGFTPLQSSTLSDVAASLGATPMQVALAWLLQRSPNILLIPGTSSVAHLRENMAAEKLHLSEEVLSTLDGISRE	h	5.53
MTTPTFDTIEAQASYGIGLQVGQQLSESGLEGLLPEALVAGIADALEGKHPAVPVDVVHRALREIHERADAVRRQRFQAMAAEGVKYLEENAKKEGVNSTESGLQFRVINQGEGAIPARTDRVRVHYTGKLIDGTVFDSSVARGEPAEFPVNGVIPGWIEALTLMPVGSKWELTIPQELAYGERGAGASIPPFSTLVFEVELLEIL [P0A9L3]	h	5.67
MTTLAIDIGGTKLAAALIGADGQIRDRRELPTPASQTPEALRDALSALVSPLQAHAQRVAIASTGIIRDGSLLALNPHNLGGLLHFPLVKTLEQLTNLPTIAINDAQAAAWAEFQALDGDITDMVFITVSTGVGGGVVSGCKLLTGPGGLAGHIGHTLADPHGPVCGCGRTGCVEAIASGRGIAAAAQGELAGADAKTIFTRAGQGDEQAQQLIHRSARTLARLIADIKATTDCQCVVVGGSVGLAEGYLALVETYLAQEPAAFHVDLLAAHYRHDAGLLGAALLAQGEKL	h	5
MTDVLLCVGNSMMGDDGAGPLLAEKCAAAPKGNWVVIDGGSAPENDIVAIRELRPTRLLIVDATDMGLNPGEIRIIDPDDIAEMFMMTTHNMPLNYLIDQLKEDIGEVIFLGIQPDIVGFYYPMTQPIKDAVETVYQRLEGWEGNGGFAQLAVEEE [P0AEV9]	h	5.01
MENNEIQSVLMNALSLQEVHVSGDGSHFQVIAVGELFDGMSRVKKQQTVYGPLMEYIADNRIHAVSIKAYTPAEWARDRKLNGF [P0A9W6]	h	4.5

Query: Answer with the recorded total protein half-life in vivo of MSESVQSNSAVLVHFTLKLDDGTTAESTRNNGKPALFRLGDASLSEGLEQHLLGLKVGDKTTFSLEPDAAFGVPSPDLIQYFSRREFMDAGEPEIGAIMLFTAMDGSEMPGVIREINGDSITVDFNHPLAGQTVHFDIEVLEIDPALEA [P0AEM0] only.
Response: 4.78

Query: Answer with the recorded total protein half-life in vivo of `MLIIETLPLLRQQIRRLRMEGKRVALVPTMGNLHDGHMKLVDEAKARADVVVVSIFVNPMQFDRPEDLARYPRTLQEDCEKLNKRKVDLVFAPSVKEIYPNGTETHTYVDVPGLSTMLEGASRPGHFRGVSTIVSKLFNLVQPDIACFGEKDFQQLALIRKMVADMGFDIEIVGVPIMRAKDGLALSSRNGYLTAEQRKIAPGLYKVLSSIADKLQAGERDLDEIITIAGQELNEKGFRADDIQIRDADTLLEVSETSKRAVILVAAWLGDARLIDNKMVELA` only.
Response: 5.5

Query: Answer with the recorded total protein half-life in vivo of MRKIALILAMLLIPCVSFAGLLGSSSSTTPVSKEYKQQLMGSPVYIQIFKEERTLDLYVKMGEQYQLLDSYKICKYSGGLGPKQRQGDFKSPEGFYSVQRNQLKPDSRYYKAINIGFPNAYDRAHGYEGKYLMIHGDCVSIGCYAMTNQGIDEIFQFVTGALVFGQPSVQVSIYPFRMTDANMKRHKYSNFKDFWEQLKPGYDYFEQTRKPPTVSVVNGRYVVSKPLSHEVVQPQLASNYTLPEAK [P0AA99] only.
Response: 1.37

Query: Answer with the recorded total protein half-life in vivo of `MKRMIALDGAQGEGGGQILRSALSLSMITGQPFTITSIRAGRAKPGLLRQHLTAVKAATEICGATVEGAELGSQRLLFRPGTVRGGDYRFAIGSAGSCTLVLQTVLPALWFADGPSRVEVSGGTDNPSAPPADFIRRVLEPLLAKIGIHQQTTLLRHGFYPAGGGVVATEVSPVASFNTLQLGERGNIVQMRGEVLLAGVPRHVAEREIATLAGSFSLHEQNIHNLPRDQGPGNTVSLEVESENITERFFVVGEKRVSAEVVAAQLVKEVKRYLASTAAVGEYLADQLVLPMALAGAGEFTVAHPSCHLLTNIAVVERFLPVRFSLIETDGVTRVSIE` only.
Response: 5.6

Query: Answer with the recorded total protein half-life in vivo of `MRNHQLGIYEKALAKDLSWPERLVLAKSCGFDFVEMSVDETDERLSRLDWSAAQRTSLVAAMIETGVGIPSMCLSAHRRFPFGSRDEAVRERAREIMSKAIRLARDLGIRTIQLAGYDVYYEDHDEGTRQRFAEGLAWAVEQAAASQVMLAVEIMDTAFMNSISKWKKWDEMLASPWFTVYPDVGNLSAWGNDVPAELKLGIDRIAAIHLKDTQPVTGQSPGQFRDVPFGEGCVDFVGIFKTLHKLNYRGSFLIEMWTEKAKEPVLEIIQARRWIEARMQEAGFIC` only.
Response: 1.6

Query: Answer with the recorded total protein half-life in vivo of MNKETQPIDRETLLKEANKIIREHEDTLAGIEATGVTQRNGVLVFTGDYFLDEQGLPTAKSTAVFNMFKHLAHVLSEKYHLVD [P0AB61] only.
Response: 4.89

Query: Answer with the recorded total protein half-life in vivo of `MSAGRLNKKSLGIVMLLSVGLLLAGCSGSKSSDTGTYSGSVYTVKRGDTLYRISRTTGTSVKELARLNGISPPYTIEVGQKLKLGGAKSSSITRKSTAKSTTKTASVTPSSAVPKSSWPPVGQRCWLWPTTGKVIMPYSTADGGNKGIDISAPRGTPIYAAGAGKVVYVGNQLRGYGNLIMIKHSEDYITAYAHNDTMLVNNGQSVKAGQKIATMGSTDAASVRLHFQIRYRATAIDPLRYLPPQGSKPKC` only.
Response: 5.48

----------
- Protocol description: total protein half-life in vivo (active degradation + dilution); higher = more stable protein
- Condition notes: E. coli NCM3722 delta-smpB; growth: N-lim chemostat; doubling time 6 h
total protein half-life in vivo overview
Report as: number unit

Residue codes	Readout label	Observed measurement
MVLMIVSGRSGSGKSVALRALEDMGFYCVDNLPVVLLPDLARTLADREISAAVSIDVRNMPESPEIFEQAMSNLPDAFSPQLLFLDADRNTLIRRYSDTRRLHPLSSKNLSLESAIDKESDLLEPLRSRADLIVDTSEMSVHELAEMLRTRLLGKRERELTMVFESFGFKHGIPIDADYVFDVRFLPNPHWDPKLRPMTGLDKPVAAFLDRHTEVHNFIYQTRSYLELWLPMLETNNRSYLTVAIGCTGGKHRSVYIAEQLADYFRSRGKNVQSRHRTLEKRKP [P0A894]	total protein half-life in vivo	4.45 h

Query: Answer with the recorded total protein half-life in vivo of MGFKCGIVGLPNVGKSTLFNALTKAGIEAANFPFCTIEPNTGVVPMPDPRLDQLAEIVKPQRTLPTTMEFVDIAGLVKGASKGEGLGNQFLTNIRETEAIGHVVRCFENDNIIHVSGKVNPADDIEVINTELALADLDTCERAIHRVQKKAKGGDKDAKAELAVLEKCLPQLENAGMLRALDLSAEEKAAIRYLSFLTLKPTMYIANVNEDGFENNPYLDQVREIAAKEGSVVVPVCAAVEADIAELDDEERDEFMQELGLEEPGLNRVIRAGYKLLNLQTYFTAGVKEVRAWTIPVGATAPQAAGKIHTDFEKGFIRAQTISFEDFITYKGEQGAKEAGKMRAEGKDYIVKDGDVMNFLFNV [P0ABU2] only.
Response: 3.69 h
